Species on record: Homo sapiens
measurement-notes: To identify inhibition of the IFN signalling (Jak-Stat) pathway via expression of an eGFP reporter gene under the control of an IFN-stimulated response element (ISRE) containing MxA promoter.
Assay type: functional
Parameters: scale not given: direction of the effect not stated beside the values
condition-info: 30 µM

[
  {
    "molecule": "Cn1cc(CN2C[C@@H]3COC[C@]3(COc3ccc(C#N)cn3)C2)cn1",
    "Percent Effect, %": 13.4
  },
  {
    "molecule": "Cc1nc2cc(C3CCN(Cc4cccc(F)c4F)C3)nn2c(O)c1C (stereo unspecified)",
    "Percent Effect, %": 10.8
  },
  {
    "molecule": "CN(C)S(=O)(=O)c1ccc(CN2CCCC2CO)o1 (stereo unspecified)",
    "Percent Effect, %": 11.2
  },
  {
    "molecule": "Cc1cnn(CCNCc2nc(-c3ccccc3Cl)no2)c1",
    "Percent Effect, %": 12.2
  },
  {
    "molecule": "CC(NC(=O)NCCN1CCCCCC1=O)c1nncn1C (stereo unspecified)",
    "Percent Effect, %": 11.3
  },
  {
    "molecule": "CCc1[nH]ncc1C(=O)N1CCCN(Cc2cnn(C)c2)CC1",
    "Percent Effect, %": 21.9
  }
]

The measurements presented in this section are drawn from ChEMBL document CHEMBL3988442.
